Entries annotated with measured MIC
Test system: Micrococcus luteus
Assay: Antibacterial activity against Micrococcus luteus SK58 after 20 hrs by broth microdilution assay
Format: functional
Conditions: SK58, 20 h
API: value field is a number in µM; no unit string.

Use these answered entries as a reference point.
{"COMPOUND": "CCN(CC)C(=S)SSC(=S)N(CC)CC", "REPORTED VALUE": 32}
{"COMPOUND": "CCCCCCCCSSC(=S)N(CC)CC", "REPORTED VALUE": 16}
{"COMPOUND": "CCCSSC(=S)N(CC)CC", "REPORTED VALUE": 16}
{"COMPOUND": "CCN(CC)C(=S)SSC", "REPORTED VALUE": 32}
{"COMPOUND": "CCCCCCSSC(=S)N(CC)CC [DIETHYLCARBAMO(DITHIOPEROXO)THIOATE]", "REPORTED VALUE": 16}
{"COMPOUND": "CCCCCSSC(=S)N(CC)CC", "REPORTED VALUE": 16}
{"COMPOUND": "CCCCCCCSSC(=S)N(CC)CC", "REPORTED VALUE": 16}

### Prompt Using the record for CCN(CC)C(=S)SSCc1ccccc1 , report its MIC.
### Response 16

====

Tested on: Bacillus anthracis
Assay: Antibacterial activity against Bacillus anthracis Weybridge after 20 hrs by broth microdilution assay
Format: functional
Entries annotated with measured MIC
Report as: number unit

### Prompt Using the record for CCN(CC)C(=S)SSCc1ccccc1 , report its MIC.
### Response 4 µM

### Prompt Using the record for CCCSSC(=S)N(CC)CC , report its MIC.
### Response 4 µM

### Prompt Using the record for CCN(CC)C(=S)SSC , report its MIC.
### Response 4 µM

### Prompt Using the record for CCCCCSSC(=S)N(CC)CC , report its MIC.
### Response 8 µM

### Prompt Using the record for CCCCCCCSSC(=S)N(CC)CC , report its MIC.
### Response 2 µM

### Prompt Using the record for CCCCCCCCSSC(=S)N(CC)CC , report its MIC.
### Response 2 µM

### Prompt Using the record for CCCCCCSSC(=S)N(CC)CC [DIETHYLCARBAMO(DITHIOPEROXO)THIOATE] , report its MIC.
### Response 8 µM

====

System: Bacillus anthracis
Assay: Antibacterial activity against Bacillus anthracis Sterne 34F2 after 20 hrs by broth microdilution assay
Format: functional
Conditions: Sterne 34F2, 20 h
Entries annotated with measured MIC
API: value field is a number in µM; no unit string.

Use these answered entries as a reference point.
{"MOLECULE": "CCCCCCCCSSC(=S)N(CC)CC", "REPORTED VALUE": 2}
{"MOLECULE": "CCCCCSSC(=S)N(CC)CC", "REPORTED VALUE": 4}
{"MOLECULE": "CCCCCCCSSC(=S)N(CC)CC", "REPORTED VALUE": 2}

### Prompt Using the record for CCCSSC(=S)N(CC)CC , report its MIC.
### Response 4

### Prompt Using the record for CCN(CC)C(=S)SSCc1ccccc1 , report its MIC.
### Response 4

### Prompt Using the record for CCN(CC)C(=S)SSC , report its MIC.
### Response 4

### Prompt Using the record for CCCCCCSSC(=S)N(CC)CC [DIETHYLCARBAMO(DITHIOPEROXO)THIOATE] , report its MIC.
### Response 4

====

Experiment: Selectivity index, ratio of IC50 for cytotoxicity against human HepG2 cells to MIC for antibacterial activity against vancomycin-intermediate resistant Staphylococcus aureus
Format: toxicity, cell-based
Settings: read-out: Selectivity Index
READOUT NAME: selectivity ratio

### Prompt Using the record for CCCCCCCCSSC(=S)N(CC)CC , report its selectivity ratio.
### Response > 13

====

System: Staphylococcus aureus
Experiment: Antibacterial activity against methicillin-resistant Staphylococcus aureus COL after 20 hrs by broth microdilution assay
Assay type: functional
READOUT NAME: MIC (µM)
API: value field is a number in µM; no unit string.

{"LINE NOTATION": "CCSSC(=S)N(CC)CC", "REPORTED VALUE": 16}

### Prompt Using the record for CCCCCCCSSC(=S)N(CC)CC , report its MIC.
### Response 4

### Prompt Using the record for CCCCCCCCSSC(=S)N(CC)CC , report its MIC.
### Response 4

====

Entries annotated with measured MIC
System: Staphylococcus aureus
Test: Antibacterial activity against methicillin-resistant Staphylococcus aureus COL after 20 hrs by broth microdilution assay
Assay type: functional
API: value field is a number in µM; no unit string.

{"LINE NOTATION": "CCN(CC)C(=S)SSCc1ccccc1", "DISPLAY UNIT": "µM", "REPORTED VALUE": 8}

### Prompt Using the record for CCN(CC)C(=S)SSc1ccccc1 , report its MIC.
### Response 32

### Prompt Using the record for CCCCCCCCCCSSC(=S)N(CC)CC , report its MIC.
### Response 16

### Prompt Using the record for CN[C@H](CC(C)C)C(=O)N[C@H]1C(=O)N[C@@H](CC(N)=O)C(=O)N[C@H]2C(=O)N[C@H]3C(=O)N[C@H](C(=O)N[C@H](C(=O)O)c4cc(O)cc(O)c4-c4cc3ccc4O)[C@H](O)c3ccc(c(Cl)c3)Oc3cc2cc(c3O[C@@H]2O[C@H](CO)[C@@H](O)[C@H](O)[C@H]2O[C@H]2C[C@](C)(N)[C@H](O)[C@H](C)O2)Oc2ccc(cc2Cl)[C@H]1O , report its MIC.
### Response 1

### Prompt Using the record for CCN(CC)C(=S)SSC , report its MIC.
### Response 32
